Target: plasma purified human complement protein C3 (human) (UniProt P01024)
Sequence (P01024 23-667, chain 1 of 2): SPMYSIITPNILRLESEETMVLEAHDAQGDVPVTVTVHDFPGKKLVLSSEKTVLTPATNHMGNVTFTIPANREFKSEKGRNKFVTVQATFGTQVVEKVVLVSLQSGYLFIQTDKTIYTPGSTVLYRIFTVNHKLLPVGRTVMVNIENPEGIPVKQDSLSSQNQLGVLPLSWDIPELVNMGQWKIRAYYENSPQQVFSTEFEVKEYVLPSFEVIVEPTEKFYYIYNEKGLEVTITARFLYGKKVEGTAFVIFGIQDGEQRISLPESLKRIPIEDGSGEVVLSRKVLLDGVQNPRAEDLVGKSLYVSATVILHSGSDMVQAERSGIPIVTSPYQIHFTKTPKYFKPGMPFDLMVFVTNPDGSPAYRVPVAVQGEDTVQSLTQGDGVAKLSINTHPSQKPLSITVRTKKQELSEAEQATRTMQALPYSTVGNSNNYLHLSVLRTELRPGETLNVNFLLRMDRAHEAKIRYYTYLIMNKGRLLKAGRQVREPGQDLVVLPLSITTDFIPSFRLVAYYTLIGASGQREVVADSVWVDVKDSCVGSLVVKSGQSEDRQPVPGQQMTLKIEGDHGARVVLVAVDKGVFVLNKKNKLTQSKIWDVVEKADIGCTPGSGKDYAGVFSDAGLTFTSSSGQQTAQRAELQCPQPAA
Sequence (P01024 672-1663, chain 2 of 2): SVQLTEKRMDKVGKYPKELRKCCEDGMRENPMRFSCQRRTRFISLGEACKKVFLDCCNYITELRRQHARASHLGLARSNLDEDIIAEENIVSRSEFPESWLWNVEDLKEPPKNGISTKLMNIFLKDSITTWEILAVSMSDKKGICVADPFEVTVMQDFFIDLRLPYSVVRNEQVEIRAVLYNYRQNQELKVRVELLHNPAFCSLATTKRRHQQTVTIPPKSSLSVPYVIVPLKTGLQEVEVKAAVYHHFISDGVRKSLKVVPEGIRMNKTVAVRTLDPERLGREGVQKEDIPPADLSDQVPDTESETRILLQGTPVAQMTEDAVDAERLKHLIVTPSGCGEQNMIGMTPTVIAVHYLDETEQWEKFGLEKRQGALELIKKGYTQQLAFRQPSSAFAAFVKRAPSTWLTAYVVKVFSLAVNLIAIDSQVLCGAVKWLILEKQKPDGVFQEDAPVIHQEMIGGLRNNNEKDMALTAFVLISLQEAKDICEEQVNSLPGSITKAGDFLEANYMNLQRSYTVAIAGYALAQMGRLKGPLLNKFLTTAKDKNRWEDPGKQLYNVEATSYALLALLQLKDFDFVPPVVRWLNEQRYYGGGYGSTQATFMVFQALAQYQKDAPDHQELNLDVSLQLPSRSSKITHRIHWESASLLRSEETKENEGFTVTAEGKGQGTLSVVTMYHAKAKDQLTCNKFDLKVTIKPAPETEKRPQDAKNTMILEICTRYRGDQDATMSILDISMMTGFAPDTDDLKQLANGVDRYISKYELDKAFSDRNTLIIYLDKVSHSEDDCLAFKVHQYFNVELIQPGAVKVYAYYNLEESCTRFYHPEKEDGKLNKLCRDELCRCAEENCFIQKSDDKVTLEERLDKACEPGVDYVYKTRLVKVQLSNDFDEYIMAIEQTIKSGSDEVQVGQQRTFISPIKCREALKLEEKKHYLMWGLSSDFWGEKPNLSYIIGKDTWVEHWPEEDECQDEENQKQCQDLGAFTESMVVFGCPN
Assay: cell-based or functional assay
Record form. Attribute: EC50 of hC3 cleavage. Fill in for each entry.
A complete answer gives the number and then names the unit.

**Query** Quick one: EC50 of hC3 cleavage for MTSP-1 Q38H/I41S/P49Q/D60bS/F93L/ins97aV/F97D/T98P/F99L/C122S/Q192G/D217Q (enzyme) VVGGTDADEGEWPWQVSLHALGHGHSCGASLISQNWLVSAAHCYIDSRGFRYSDPTQWTAFLGLHDQSQRSAPGVQERRLKRIISHPLFNDDVPLDYDIALLELEKPAEYSSMVRPISLPDASHVFPAGKAIWVTGWGHTQYGGTGALILQKGEIRVINQTTCENLLPQQITPRMMCVGFLSGGVDSCGGDSGGPLSSVEADGRIFQAGVVSWGQGCAQRNKPGVYTRLPLFRDWIKENTGV ?
**Result** 48.3 nM

**Query** And the next one, MTSP-1 Q38W/I41S/D60bG/F60eI/F97D/ins97aV/T98P/F99L/C122S/G151N/Q175A/Q192D (enzyme) VVGGTDADEGEWPWQVSLHALGWGHSCGASLISPNWLVSAAHCYIDGRGIRYSDPTQWTAFLGLHDQSQRSAPGVQERRLKRIISHPFFNDDVPLDYDIALLELEKPAEYSSMVRPISLPDASHVFPAGKAIWVTGWGHTQYGGTNALILQKGEIRVINQTTCENLLPQAITPRMMCVGFLSGGVDSCDGDSGGPLSSVEADGRIFQAGVVSWGDGCAQRNKPGVYTRLPLFRDWIKENTGV ?
**Result** 43.1 nM
